measured_on: 5-HT3 (Homo sapiens, UniProt P46098)
Sequence (P46098 24-478): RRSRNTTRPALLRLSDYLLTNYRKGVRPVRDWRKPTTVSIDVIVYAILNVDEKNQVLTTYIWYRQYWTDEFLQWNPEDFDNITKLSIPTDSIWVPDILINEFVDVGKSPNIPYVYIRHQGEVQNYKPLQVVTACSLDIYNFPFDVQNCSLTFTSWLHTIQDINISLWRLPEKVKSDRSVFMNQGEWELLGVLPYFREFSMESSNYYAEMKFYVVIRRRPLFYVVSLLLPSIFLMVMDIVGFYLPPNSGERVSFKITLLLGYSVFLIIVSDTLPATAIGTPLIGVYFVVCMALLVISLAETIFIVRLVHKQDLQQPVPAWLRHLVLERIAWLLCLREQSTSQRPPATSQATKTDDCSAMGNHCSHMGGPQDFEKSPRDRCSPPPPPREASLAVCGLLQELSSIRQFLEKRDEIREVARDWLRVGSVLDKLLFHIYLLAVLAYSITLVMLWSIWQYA
test_name: Compound affinity for the human 5-HT3 receptor (Assay B), SPA radioligand binding with [9-methyl-3H]BRL-43694
Parameters: purchased Perkin Elmer
particulars: Assay B (method B unless otherwise annotated); read-out: 5-HT3 Ki
pKi: −log10 of the molar value. Counter-ions that a name gives are not always drawn.
If the reported pKi equals or exceeds 8, assign y. If not, assign n.

Look over these answered cases.
{"compound": "CC[C@@H]1COCCN1c1nc2c(C(=O)NC3CC4CCCC(C3)N4C)cccc2o1 (some centres unmarked) [Example 151, Hydrochloride]", "assigned_label": "n"}
{"compound": "C[C@H]1CN(S(C)(=O)=O)C[C@H](C)N1c1nc2c(C(=O)NC3CC4CCCC(C3)N4C)cccc2o1 (some centres unmarked) [Example 131, Hydrochloride]", "assigned_label": "y"}
{"compound": "CN1[C@@H]2CCC[C@H]1C[C@@H](NC(=O)c1cccc3oc(N4CCn5c(nnc5C(F)(F)F)C4)nc13)C2 [Example 54, Hydrochloride]", "assigned_label": "n"}
{"compound": "CC(C)C[C@H]1CN(c2nc3c(C(=O)NC4CC5CCCC(C4)N5C)cccc3o2)CCN1 (some centres unmarked) [Example 74, Hydrochloride]", "assigned_label": "n"}

Determine whether this compound has pKi no lower than 8: CN1CCCN(c2nc3c(C(=O)NC4CN5CCC4CC5)cccc3o2)CC1 (centres unmarked) [Example 12, Dihydrochloride] n

Determine whether this compound has pKi no lower than 8: CN(C)C(=O)CNc1nc2c(C(=O)N[C@H]3C[C@H]4CCC[C@@H](C3)N4C)cccc2o1 [Example 47, Dihydrochloride] n

Determine whether this compound has pKi no lower than 8: O=C(N[C@@H]1CN2CCC1CC2)c1cccc2oc(N3CCOCC3)nc12 [Example 10, Hydrochloride] n

Determine whether this compound has pKi no lower than 8: CCOC(=O)N1C[C@H](C)N(c2nc3c(C(=O)NC4CC5CCCC(C4)N5C)cccc3o2)[C@@H](C)C1 (some centres unmarked) [Example 144, Hydrochloride] y

Determine whether this compound has pKi no lower than 8: CC(C)C(=O)N1C[C@H](C)N(c2nc3c(C(=O)NC4CC5CCCC(C4)N5C)cccc3o2)[C@@H](C)C1 (some centres unmarked) [Example 135, Hydrochloride] y

Determine whether this compound has pKi no lower than 8: CC1CN(c2nc3c(C(=O)N[C@H]4C[C@H]5CCC[C@@H](C4)N5C)cccc3o2)CCN1 (some centres unmarked) [Example 95, Hydrochloride] n
